Recorded pIC50, one value per entry.
# System: MCF-12A cells
# test.method.notes: MTT cell viability assay, non-tumorigenic MCF-12A
# Format: cell-based, human
# test.parameters: Homo sapiens; non-cancerous MCF-12A cells, applied concentration range, time not specified
pIC50: −log10 of the molar value.

Here are 2 compounds together with their reported answers.
compound	result.type	result
COC(=O)C12CCC(C)(C)CC1C1=CCC3C4(C)CCC(OC(=O)CCC(=O)Oc5ccc(/C=C/C(O)=C/C(=O)/C=C/c6ccc(O)c(OC)c6)cc5OC)C(C)(C)C4CCC3(C)C1(C)CC2 (stereo not drawn)	pIC50	< 4.00
COC(=O)C12CCC(C)(C)CC1C1=CCC3C4(C)CCC(OC(=O)CCC(=O)Oc5ccc(/C=C/c6cc(/C=C/c7ccc(O)c(OC)c7)no6)cc5OC)C(C)(C)C4CCC3(C)C1(C)CC2 (stereo not drawn)	pIC50	< 4.00

Tell me reported pIC50 for COc1cc(/C=C/C(=O)/C=C(O)/C=C/c2ccc(OC(=O)CCC(=O)OC3CCC4(C)C(CCC5(C)C4CC=C4C6CC(C)(C)CCC6(C(=O)O)CCC45C)C3(C)C)c(OC)c2)ccc1O (stereo not drawn) , tested with MCF-12A cells.
< 4.00

The reported numbers originate from paper PMC10295546.
